Tested on: NCI-H211 complex spheroid viability
Experiment: Anticancer human tumor NCI-H211 cell line growth inhibition [LSD1];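 note: luminescent viability read after seven days of drug exposure; 100% = DMSO vehicle control viability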
Details: second compound 3.16 µM; first compound 0.3 µM; hits give low values
Reported viability, T/C values for a set of compounds

INSERT INTO results (compound, data_value) VALUES
  ('O=C(C=Cc1cccc(S(=O)(=O)Nc2ccccc2)c1)NO + NC1CCC(NC2CC2c2ccccc2)CC1', '2.66%'),
  ('CCN(c1cc(-c2ccc(CN3CCOCC3)cc2)cc(C(=O)NCc2c(C)cc(C)[nH]c2=O)c1C)C1CCOCC1 + NC1CC1c1ccc(-c2cccc(O)c2)cc1', '46.3%');

Consider the compound COc1cc(C2c3cc4c(cc3C(OC3OC5COC(C)OC5C(O)C3O)C3COC(=O)C23)OCO4)cc(OC)c1O (centres undefined) + NC1CCC(NC2CC2c2ccccc2)CC1 and give its measured viability, T/C.
2.37%

Consider the compound NS(=O)(=O)OCC1CC(n2ccc3c(NC4CCc5ccccc54)ncnc32)CC1O (centres undefined) + NC1CCC(NC2CC2c2ccccc2)CC1 and give its measured viability, T/C.
0.54%

Consider the compound Nc1ccn(C2OC(CO)C(O)C2(F)F)c(=O)n1 (centres undefined) + NC1CC1c1ccc(-c2cccc(O)c2)cc1 and give its measured viability, T/C.
4.65%

Consider the compound CCN(c1cc(-c2ccc(CN3CCOCC3)cc2)cc(C(=O)NCc2c(C)cc(C)[nH]c2=O)c1C)C1CCOCC1 + NC1CCC(NC2CC2c2ccccc2)CC1 and give its measured viability, T/C.
49.9%

Consider the compound COc1cc(C2c3cc4c(cc3C(OC3OC5COC(C)OC5C(O)C3O)C3COC(=O)C23)OCO4)cc(OC)c1O (centres undefined) + NC1CC1c1ccc(-c2cccc(O)c2)cc1 and give its measured viability, T/C.
5.22%

Consider the compound Nc1ccn(C2OC(CO)C(O)C2(F)F)c(=O)n1 (centres undefined) + NC1CCC(NC2CC2c2ccccc2)CC1 and give its measured viability, T/C.
2.13%

Consider the compound Nc1ncn(C2CC(O)C(CO)S2)c(=O)n1 (centres undefined) + NC1CC1c1ccc(-c2cccc(O)c2)cc1 and give its measured viability, T/C.
4.49%

----------
Tested on: NCI-H211 complex spheroid viability
Assay: Anticancer human tumor NCI-H211 cell line growth inhibition [LSD1];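 note: luminescent viability read after seven days of drug exposure; 100% = DMSO vehicle control viability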
Conditions: second compound 0.316 µM; first compound 1 µM; hits give low values
Parameter: viability, T/C (%)
Just the number please, in %, no unit attached.

INSERT INTO measurements (molecule, data_value) VALUES
  ('CC(C)c1c(-c2ccccc2)nc2c(C#N)c[nH]n2c1=O + NC1CCC(NC2CC2c2ccccc2)CC1', 72.8);

Attention now shifts to the item below.
Provide the documented viability, T/C with NCI-H211 complex spheroid viability as the system for Nc1ncn(C2CC(O)C(CO)O2)c(=O)n1 (stereo not drawn) + NC1CCC(NC2CC2c2ccccc2)CC1
1.78

----------
Tested on: NCI-H211 complex spheroid viability
Test: Anticancer human tumor NCI-H211 cell line growth inhibition [LSD1]; active = viability on the fitted dose curve at most 10% of control; inactive = the rest;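 note: luminescent viability read after seven days of drug exposure; 100% = DMSO vehicle control viability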
Conditions: second compound 0.316 µM; first compound 1 µM
From the text: Multicellular complex tumor spheroid response to LSD1 Inhibitor Iadademstat in combination with a variety of drugs and investigational agents in selected tumor cell lines The current study was undertaken to assess response to LSD1 inhibitors in combination with standard-of-care drugs and investigational agents in solid tumor complex spheroid models as well as in the K-562 leukemia. […] Compounds. […] If the clinical Cmax for an agent had not been determined, the highest concentration tested was 10 microM. […]
The reply should name one outcome from class 1 for active, class 0 for inactive

# count of solved cases: 10
INSERT INTO assay_data (compound, class_assignment) VALUES
  ('CC1COCCN1c1cc(-c2ccnn2C)c2ccnc(-c3ccn[nH]3)c2n1 (stereo unspecified) + NC1CCC(NC2CC2c2ccccc2)CC1', 'class 1'),
  ('O=C(C=Cn1cnc(-c2cc(C(F)(F)F)cc(C(F)(F)F)c2)n1)NNc1cnccn1 + NC1CC1c1ccc(-c2cccc(O)c2)cc1', 'class 1'),
  ('Nc1ncn(C2CC(O)C(CO)O2)c(=O)n1 (stereo unspecified) + NC1CC1c1ccc(-c2cccc(O)c2)cc1', 'class 1'),
  ('O=C(c1cc(Cc2n[nH]c(=O)c3ccccc23)ccc1F)N1CCN(C(=O)C2CC2)CC1 + NC1CC1c1ccc(-c2cccc(O)c2)cc1', 'class 1'),
  ('CC1(C)CCC(CN2CCN(c3ccc(C(=O)NS(=O)(=O)c4ccc(NCC5CCOCC5)c([N+](=O)[O-])c4)c(Oc4cnc5[nH]ccc5c4)c3)CC2)=C(c2ccc(Cl)cc2)C1 + NC1CCC(NC2CC2c2ccccc2)CC1', 'class 0'),
  ('COc1cc(Nc2ncc3c(n2)-c2ccc(Cl)cc2C(c2c(F)cccc2OC)=NC3)ccc1C(=O)O + NC1CC1c1ccc(-c2cccc(O)c2)cc1', 'class 1'),
  ('CC1COCCN1c1cc(C2(S(C)(=N)=O)CC2)nc(-c2ccnc3[nH]ccc23)n1 (stereo unspecified) + NC1CCC(NC2CC2c2ccccc2)CC1', 'class 0'),
  ('CC1COCCN1c1cc(-c2ccnn2C)c2ccnc(-c3ccn[nH]3)c2n1 (stereo unspecified) + NC1CC1c1ccc(-c2cccc(O)c2)cc1', 'class 1'),
  ('COc1ccc([C@@H](O)c2cc(-c3ncnc4cc(N5CCOCC5)ccc34)c(F)cc2Cl)nn1 + NC1CCC(NC2CC2c2ccccc2)CC1', 'class 0'),
  ('CC1(C)CCC(CN2CCN(c3ccc(C(=O)NS(=O)(=O)c4ccc(NCC5CCOCC5)c([N+](=O)[O-])c4)c(Oc4cnc5[nH]ccc5c4)c3)CC2)=C(c2ccc(Cl)cc2)C1 + NC1CC1c1ccc(-c2cccc(O)c2)cc1', 'class 0');

Let's switch to this compound now.
What call does the record list for CC1COCCN1c1cc(C2(S(C)(=N)=O)CC2)nc(-c2ccnc3[nH]ccc23)n1 (stereo unspecified) + NC1CC1c1ccc(-c2cccc(O)c2)cc1 ?
class 0
